Please respond with reported Tm for every item in the list.
Test: melting temperature; fluorescence melt of hairpins on a sequencing array, two-state fit, raised by 9.35 °C to match UV melts
Conditions: sodium 0.088 M
The answer is to be given in °C; state only the numeric part.

Find the recorded Tm belonging to GGAACTCGAAAGAGTCC (((.(((....)))))) and report it.
49.2

Quick one: Tm of GGAGGGGGAAACCCCTTC (.(((((....))))).) ?
50.6

I have this sequence here, GTTCACGAAAGTGTGAAC ((((((....)))..))) , and I need its recorded Tm.
47.3

Reported Tm, sequence GAACCCGAAAGGGGTTTC ((((((....)))..))) : ____
46.9

Requested read-out: Tm. Entry: GCGCCTCGAAAGAGCCGC (((.(((....))).)))
52.2

State the recorded Tm for this entry: GCCGCAGGAAACTGCGAC (.(((((....))))).)
48.8

Can you look up the measured Tm of GATGGGACGAAAGTCATC (((..(((....)))))) for me?
31.9

Recorded Tm of GGGGCCGGAAACGGCCTC (.(((((....))))).) , please.
69.2

Tm for CGTGCTCGGAAACGAACG (((..(((....)))))) ?
21.2

What does the record list as Tm for GACGTAGGAAACTACGTC (((((((....))))))) ?
63.3

Look at this sequence and give its reported Tm. GAGATTGGAAACAATCTC (((((((....)))))))
56.4

# get_value(readout='Tm', item= GGGCAACCGAAAGGTCCC (((..(((....)))))) )
44

Which Tm is listed for TGCGAGAAATCGCA (((((....))))) ?
54.3

Given GATCTCAGTGGAGATC ((((((....)))))) , state its recorded Tm.
52.6

I have this sequence here, GGGGCTGGAAACAACCCC ((((.((....)).)))) , and I need its recorded Tm.
49.2

// query Tm value for entry GCCTGACGAAAGTCGGC (((.(((....))))))
63.1

Quick one: Tm for GACGACGAAAGTCAAGTC ((((((....)))..))) ?
45.9

// lookup Tm for GTCGGACCGAAAGGTGAC (((..(((....))))))
41.3

Please look up its Tm: GACTACGAAAGTAAGGTC ((((((....)))..)))
32.7
